test: Volume of distribution in rat; assay type: ADME; conditions: in vivo
VALUE_TYPE: Vd (L/kg)
Express it in L/kg; write the number only.

Task: Request the reported Vd associated with CC1(C)C(=O)N([C@H]2CCc3c(O)cccc32)c2nc(Nc3ccccc3)ncc21
Output: 16.2

====

experiment: Half life in human liver microsomes; assay type: ADME
VALUE_TYPE: half-life (min)
Express it in min; write the number only.

Task: Request the reported half-life associated with CC1(C)C(=O)N([C@H]2CCc3c(O)cccc32)c2nc(Nc3ccccc3)ncc21
Output: 10

====

experiment: Clearance in rat plasma; format: ADME, cell-free
VALUE_TYPE: clearance (mL/min/kg)
Express it in mL/min/kg; write the number only.

Task: Request the reported clearance associated with CC1(C)C(=O)N([C@H]2CCc3c(O)cccc32)c2nc(Nc3ccccc3)ncc21
Output: 341

Measured values drawn from ChEMBL document CHEMBL3875183 for this set.
